Reported values of inhibition for individual entries
TARGET_ENTITY: recombinant human Adenosine A2B (FAST-003C) receptor (Homo sapiens)
Sequence (P29275 1-332): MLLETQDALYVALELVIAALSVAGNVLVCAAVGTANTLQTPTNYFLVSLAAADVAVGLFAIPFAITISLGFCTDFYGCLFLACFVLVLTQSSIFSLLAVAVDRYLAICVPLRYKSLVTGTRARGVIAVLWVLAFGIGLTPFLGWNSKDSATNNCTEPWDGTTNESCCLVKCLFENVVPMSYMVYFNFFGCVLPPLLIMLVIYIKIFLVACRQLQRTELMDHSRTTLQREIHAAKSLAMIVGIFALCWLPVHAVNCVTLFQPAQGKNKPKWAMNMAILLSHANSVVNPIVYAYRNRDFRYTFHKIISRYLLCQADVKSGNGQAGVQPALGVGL
EXPERIMENTAL_DETAILS: cAMP HTRF assay, Adenosine A2B receptor, antagonist mode
Design: dose or concentration left out as unconfirmed
STATED_CONDITIONS: HEK293, read-out: % Inhibition Average at maximal concentration
OBSERVABLE: inhibition (%)

compound=Cc1ccc(-c2nc3c4cc(Cl)ccc4nc(N)n3n2)o1 target_entity="recombinant human Adenosine A2B (FAST-003C) receptor (Homo sapiens)" observable=inhibition endpoint_unit=% endpoint_result=110
compound=Clc1ccc2ncn3nc(-c4ccco4)nc3c2c1 target_entity="recombinant human Adenosine A2B (FAST-003C) receptor (Homo sapiens)" observable=inhibition endpoint_unit=% endpoint_result=97.8
compound=CN(C)c1nc2ccc(Cl)cc2c2nc(-c3ccco3)nn12 target_entity="recombinant human Adenosine A2B (FAST-003C) receptor (Homo sapiens)" observable=inhibition endpoint_unit=% endpoint_result=9.09
compound=C=C1Nc2ccccc2-c2nc(-c3ccco3)nn21 target_entity="recombinant human Adenosine A2B (FAST-003C) receptor (Homo sapiens)" observable=inhibition endpoint_unit=% endpoint_result=109
compound="Nc1nc2ccc(Cl)cc2c2nc(-c3ccco3)nn12 [CGS-15943, reference compound]" target_entity="recombinant human Adenosine A2B (FAST-003C) receptor (Homo sapiens)" observable=inhibition endpoint_unit=% endpoint_result=120

====

Reported values of inhibition for individual entries
TARGET_ENTITY: recombinant human Adenosine A1 (FAST-001C) receptor (Homo sapiens)
Sequence (P30542 1-326): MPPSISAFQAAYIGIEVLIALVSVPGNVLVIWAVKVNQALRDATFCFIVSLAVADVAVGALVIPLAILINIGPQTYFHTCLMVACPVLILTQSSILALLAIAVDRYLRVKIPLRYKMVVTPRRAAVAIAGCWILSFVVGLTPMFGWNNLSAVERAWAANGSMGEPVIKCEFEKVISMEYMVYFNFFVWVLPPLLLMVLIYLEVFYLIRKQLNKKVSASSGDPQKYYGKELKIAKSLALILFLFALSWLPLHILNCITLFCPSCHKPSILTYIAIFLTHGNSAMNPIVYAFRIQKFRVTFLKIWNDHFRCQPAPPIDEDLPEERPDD
EXPERIMENTAL_DETAILS: cAMP HTRF assay, Adenosine A1 receptor, antagonist mode
Design: dose or concentration left out as unconfirmed
STATED_CONDITIONS: CHO-K1, read-out: % Inhibition Average at maximal concentration
OBSERVABLE: inhibition (%)

compound=C=C1Nc2ccccc2-c2nc(-c3ccco3)nn21 endpoint_result=96.1
compound="CN(C)c1nc2ccc(Cl)cc2c2nc(-c3ccco3)nn12 [BRO-020]" endpoint_result=81.1
compound="Nc1nc2ccc(Cl)cc2c2nc(-c3ccco3)nn12 [CGS-15943, reference compound]" endpoint_result=106
compound="Clc1ccc2ncn3nc(-c4ccco4)nc3c2c1 [BRO-022]" endpoint_result=101
compound="Cc1ccc(-c2nc3c4cc(Cl)ccc4nc(N)n3n2)o1 [BRO-013]" endpoint_result=107
